Attribution: patent US6153604A

Molecular target: PCP receptor
Test: PCP receptor radioligand binding assay ([3H]MK-801, rat brain membranes)
Conditions: read-out: [3H-MK801] IC50; displacement of [3H]MK-801, rat brain membranes
pIC50: −log10 of the molar value. Counter-ions that a name gives are not always drawn.
Parameter: pIC50. Scope: all listed entries.
ATTRIBUTE_MEASURED: pIC50

>>> reported_measurement("CCc1cccc(N(C)C(=N)Nc2cc(Cl)ccc2Cl)c1 [Compd. No. 10 (Table I), hydrochloride]")
7.07
>>> reported_measurement("N=C(Nc1cc(Cl)ccc1Cl)Nc1cccc2ccccc12")
7.39
>>> reported_measurement("CSc1ccc(Cl)c(NC(=N)N(C)c2cccc(C(F)(F)F)c2)c1 [Compd. No. 66 (Table I), hydrochloride]")
8.07
>>> reported_measurement("Cc1ccc(Cl)c(N(C)C(=N)Nc2cccc3ccccc23)c1 [Compd. No. 55 (Table I), hydrochloride]")
7.39
>>> reported_measurement("CN(C(=N)Nc1cccc2ccccc12)c1cccc(Cl)c1")
6.97
>>> reported_measurement("CCc1cccc(NC(=N)Nc2cc(C)ccc2Cl)c1 [Compd. No. 7 (Table I), hydrochloride]")
7.00
>>> reported_measurement("CN(C(=N)Nc1cccc2ccccc12)c1cccc(Br)c1")
7.27
>>> reported_measurement("Cc1ccc(C)c(N(C)C(=N)Nc2cccc3ccccc23)c1 [Compd. No. 54 (Table I), hydrochloride]")
7.10
>>> reported_measurement("CCc1cccc(N(C)C(=N)Nc2cc(CC)ccc2Cl)c1 [Compd. No. 17 (Table I), hydrochloride]")
7.28

---

Target: sigma receptor
Assay: Sigma receptor binding assay ([3H]DTG, guinea pig brain membrane homogenates)
Conditions: displacement of [3H]DTG, guinea pig brain membranes
pIC50: −log10 of the molar value. Structures can show the parent of a compound that is named as a salt.
Lab note: anything with pIC50 at or over 7 counts as true; the rest go in false.

>>> category("N=C(Nc1cc(Cl)ccc1Cl)Nc1cccc2ccccc12 [Compd. No. 31 (Table I)]")
"true"
>>> category("CCc1cccc(NC(=N)Nc2cc(CC)ccc2Cl)c1 [Compd. No. 8 (Table I), hydrochloride]")
"true"
>>> category("CCc1ccc(Cl)c(NC(=N)Nc2cc(C)ccc2Cl)c1 [Compd. No. 29 (Table I)]")
"true"
>>> category("CCc1cccc(N(C)C(=N)Nc2cc(SC)ccc2Br)c1 [Compd. No. 59 (Table I)]")
"false"
>>> category("CCc1cccc(N(C)C(=N)Nc2cccc(Cl)c2)c1 [Compd. No. 12 (Table I)]")
"true"
>>> category("N=C(Nc1cc(Br)ccc1Br)Nc1cccc2ccccc12 [Compd. No. 32 (Table I), hydrochloride]")
"true"
>>> category("Cc1ccc(C)c(N(C)C(=N)Nc2cccc3ccccc23)c1 [Compd. No. 54 (Table I), hydrochloride]")
"false"
>>> category("CCc1cccc(N(C)C(=N)N(C)c2cc(Br)ccc2Br)c1 [Compd. No. 27 (Table I), hydrochloride]")
"false"

---

Some compounds, each annotated with its measured pIC50.
Target: PCP receptor
Assay: PCP receptor radioligand binding assay ([3H]MK-801, rat brain membranes)
Conditions: read-out: [3H-MK801] IC50; displacement of [3H]MK-801, rat brain membranes
pIC50: −log10 of the molar value. Structures can show the parent of a compound that is named as a salt.
ATTRIBUTE_MEASURED: pIC50

>>> reported_measurement("CCc1cccc(NC(=N)Nc2cc(CC)ccc2Br)c1 [Compd. No. 23 (Table I), hydrochloride]")
7.42
>>> reported_measurement("CCc1cccc(NC(=N)Nc2cc(C(F)(F)F)ccc2F)c1")
7.00
>>> reported_measurement("CSc1cccc(N(C)C(=N)Nc2cc(Br)ccc2Br)c1 [Compd. No. 65 (Table I), hydrochloride]")
8.27
>>> reported_measurement("CCc1ccc(Cl)c(NC(=N)Nc2cccc3ccccc23)c1 [Compd. No. 44 (Table I), hydrochloride]")
7.69
>>> reported_measurement("CCc1ccc(Br)c(NC(=N)N(C)c2cccc(OC(F)(F)F)c2)c1")
7.80
>>> reported_measurement("CSc1cccc(NC(=N)Nc2cccc3ccccc23)c1")
6.91
>>> reported_measurement("Cc1ccc(C)c(NC(=N)Nc2cccc3ccccc23)c1 [Compd. No. 33 (Table I), hydrochloride]")
7.10
>>> reported_measurement("CCc1cccc(N(C)C(=N)Nc2cc(C(F)(F)F)ccc2Br)c1 [Compd. No. 13 (Table I), hydrochloride]")
6.99
